Quick reference: Kd of the listed items.
- Target Under Test: T1, human PVR (SPR of the humanized variants, Example 5) (human, UniProt P15151 21-343)
- T1 sequence: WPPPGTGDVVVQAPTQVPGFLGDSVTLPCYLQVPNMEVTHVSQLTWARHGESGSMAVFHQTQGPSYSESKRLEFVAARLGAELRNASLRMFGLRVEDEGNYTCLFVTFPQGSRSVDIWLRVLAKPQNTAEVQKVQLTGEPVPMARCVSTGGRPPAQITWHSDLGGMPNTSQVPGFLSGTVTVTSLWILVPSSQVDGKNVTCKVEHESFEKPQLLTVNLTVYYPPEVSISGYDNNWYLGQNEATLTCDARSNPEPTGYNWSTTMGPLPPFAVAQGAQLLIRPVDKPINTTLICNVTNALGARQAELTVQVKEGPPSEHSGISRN
- Procedure Text: SPR
Assay Endpoint: Kd (nM)

humanized 5B9 variant VH1/VK2 (antibody, V domains shown) VH: QVQLVQSGAELKKPGASVKISCKATGYTFSNYWIEWIKQAPGQGLEWIGEIFPGSGRINFNEKFKGRATFTADTSIDTTYMQLSSLTSDDSAVYYCARTKIYGNSFDYWGQGTTVTVSS VL: DIQMTQSPSSLSASVGDRVTITCKASQDVGTAVVWYQQKPGKAPKLLIYWASSRHEGVPDRFSGSGSGTDFTLTISSLQPEDFADYFCQQYSRYPLTFGQGTKLEIK :: 4.01
humanized 5B9 variant VH2/VK1 (antibody, V domains shown) VH: QVQLVQSGAEVKKPGASVKISCKATGYTFSNYWIEWIKQAPGQGLEWIGEIFPGSGRINFNEKFKGRATFTADTSIDTTYMELSRLRSDDTAVYYCARTKIYGNSFDYWGQGTLVTVSS VL: DIMMTQSPSFLSASVGDRVTITCKASQDVGTAVVWYQQKPGKAPKLLIYWASSRHEGVPDRFTGSGSGTDFTLTISSLQSEDFADYFCQQYSRYPLTFGQGTKLEIK :: 3.96
IgG4(S241P)_N56E_VH1/Vκ0 (antibody, V domains shown, half-humanized control pairing; also called VH1/Vk0) VH: QVQLVQSGAELKKPGASVKISCKATGYTFSNYWIEWIKQAPGQGLEWIGEIFPGSGRINFNEKFKGRATFTADTSIDTTYMQLSSLTSDDSAVYYCARTKIYGNSFDYWGQGTTVTVSS VL: DIMMTQSHKFMSTSVGDRVNITCKASQDVGTAVVWYQQKPGQSPKLLIYWASSRHEGVPDRFTGSGSGTDFTLTISNVQSEDLSDYFCQQYSRYPLTFGAGTKLELK :: 4.5
humanized 5B9 variant VH2/VK3 (antibody, V domains shown) VH: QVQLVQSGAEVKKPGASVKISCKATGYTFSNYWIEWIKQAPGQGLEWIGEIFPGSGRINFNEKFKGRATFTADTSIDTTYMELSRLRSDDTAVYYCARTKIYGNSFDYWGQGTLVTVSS VL: DIQMTQSPSSLSASVGDRVTITCRASQDVGTAVVWYQQKPGKAPKLLIYWASSRHEGVPSRFSGSGSGTDFTLTISSLQPEDFATYFCQQYSRYPLTFGQGTKLEIK :: 5.14
humanized 5B9 variant VH4/VK3 (antibody, V domains shown) VH: QVQLVQSGAEVKKPGASVKVSCKATGYTFSNYWIEWVRQAPGQGLEWIGEIFPGSGRINFNEKFKGRVTFTADTSISTTYMELSRLRSDDTAVYYCARTKIYGNSFDYWGQGTLVTVSS VL: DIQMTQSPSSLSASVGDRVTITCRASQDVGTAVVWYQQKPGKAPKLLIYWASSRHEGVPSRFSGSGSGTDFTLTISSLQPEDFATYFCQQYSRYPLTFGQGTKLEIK :: 5.11
